Each item that follows carries a reported %Inh.
Tested on: ACVR2B;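 note: KINOMEscan kinase panel screen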
Settings: concentration: 1 μM, replicates: in singlicate; n = 1
Numbers only; they are read as %.

Worked set:
compound: CS(=O)(=O)c1cccc(CNc2nc(Nc3ccc4c(c3)CCC(=O)N4)ncc2C(F)(F)F)c1
numeric-result: 0

compound: COC(=O)Nc1nc2ccc(Oc3ccc(CC(=O)Nc4cc(C(F)(F)F)ccc4F)cc3)cc2[nH]1 [GW680903]
numeric-result: 0

compound: Cl.Cl.NC(CNC(=O)c1cc(Br)c(-c2ccnc3[nH]ccc23)s1)c1ccccc1 (stereo not drawn) [GSK1322949]
numeric-result: 10

compound: Cc1ccc(NC(=O)c2ccnc(N3CCCCC3)c2)cc1-c1ccc(C(=O)NCC2CC2)cc1 [GW775610]
numeric-result: 0

compound: Cc1cc(-c2c(-c3ccc(F)cc3)ncn2CCCN2CCOCC2)nc(N)n1 [SB-222517]
numeric-result: 0

--- query ---
Challenge: Fetch value of %Inh on ACVR2B for CN1CCN(Cc2ccc(NC(=O)Nc3ccc(N(C)c4ccnc(Nc5ccc(CS(C)(=O)=O)cc5)n4)cc3)cc2)CC1.Cl [GW827654] .
Response given: 38
